Sourced from ChEMBL document CHEMBL5344428

Documented EC50 across a set of compounds
Tested on: Human immunodeficiency virus 1
procedure-text: Antiviral activity against HIV1 IIIB infected in human MT4 cells assessed as reduction in virus induced cytopathic effect measured after 5 days by MTT assay
Type: functional, organism-based
condition-set: Human immunodeficiency virus 1, IIIB, MT4, 120 h

- smiles-repr: "COC(=O)c1ccc(C(=O)Nc2ccn(CC(=O)N[C@@H](Cc3ccccc3)C(=O)N(C)c3ccc(OC)cc3)c(=O)c2)cc1"
  unit-tag: "µM"
  cmp: "="
  EC50: 19.1
- smiles-repr: "COc1ccc(-n2c(SCc3ccccn3)nnc2[C@H](Cc2ccccc2)NC(=O)Cc2c(C)[nH]c3ccccc23)cc1"
  unit-tag: "µM"
  cmp: "="
  EC50: 2.61
- smiles-repr: "COc1ccc(N(C)C(=O)[C@H](Cc2ccccc2)NC(=O)Cn2ccc(NC(=O)c3ccc(C)cc3)cc2=O)cc1"
  unit-tag: "µM"
  cmp: "="
  EC50: 25.6
- smiles-repr: "C#CCSc1nnc([C@H](Cc2ccccc2)NC(=O)Cc2c(C)[nH]c3ccccc23)n1-c1ccc(OC)cc1"
  unit-tag: "µM"
  cmp: "="
  EC50: 2.05
- smiles-repr: "COc1ccc(-n2c(SCc3ccncc3)nnc2[C@H](Cc2ccccc2)NC(=O)Cc2c(C)[nH]c3ccccc23)cc1"
  unit-tag: "µM"
  cmp: "="
  EC50: 2.89
- smiles-repr: "COc1ccc(N(C)C(=O)[C@H](Cc2cc(F)cc(F)c2)NC(=O)CN2CCN(C(=O)Cc3c(C)[nH]c4ccccc34)CC2=O)cc1"
  unit-tag: "µM"
  cmp: "="
  EC50: 20.8
- smiles-repr: "COc1ccc(N(C)C(=O)[C@H](Cc2ccccc2)NC(=O)Cn2ccc(NC(=O)c3ccc(Br)cc3)cc2=O)cc1"
  unit-tag: "µM"
  cmp: ">"
  EC50: 23.5

* * *

# Lookup of reported CC50 at 120 h keyed by entry
procedure-text: Cytotoxicity against human MT4 cells assessed as reduction in cell viability incubated for 5 days by MTT assay
Assay type: toxicity, cell-based
condition-set: MT4 cells, time 5 day
test-readout: CC50 at 120 h (µM)

- smiles-repr: "COc1ccc(-n2c(SCc3cncs3)nnc2[C@H](Cc2ccccc2)NC(=O)Cc2c(C)[nH]c3ccccc23)cc1"
  test-readout: "CC50 at 120 h"
  cmp: "="
  value-observed: 33.9
- smiles-repr: "COc1ccc(-n2c([C@H](Cc3cc(F)cc(F)c3)NC(=O)CN3CCN(S(=O)(=O)c4ccc([N+](=O)[O-])cc4)CC3)nc3cc(F)ccc3c2=O)cc1"
  test-readout: "CC50 at 120 h"
  cmp: ">"
  value-observed: 167
- smiles-repr: "COc1ccc(N(C)C(=O)[C@H](Cc2ccccc2)NC(=O)Cc2c(C)[nH]c3ccccc23)cc1"
  test-readout: "CC50 at 120 h"
  cmp: ">"
  value-observed: 32.3
- smiles-repr: "O=C(CN1CCN(S(=O)(=O)c2ccc([N+](=O)[O-])cc2)CC1)N[C@@H](Cc1ccccc1)c1nc2ccccc2c(=O)n1-c1ccc(S(=O)(=O)N2CCS(=O)(=O)CC2)cc1"
  test-readout: "CC50 at 120 h"
  cmp: ">"
  value-observed: 145
- smiles-repr: "COc1ccc(N(C)C(=O)[C@H](Cc2ccccc2)NC(=O)CN2CCN(C(=O)c3ccc(NC(=O)C4CC4)cc3)CC2=O)cc1"
  test-readout: "CC50 at 120 h"
  cmp: "="
  value-observed: 168
- smiles-repr: "COc1ccc(N(C)C(=O)[C@H](Cc2cc(F)cc(F)c2)NC(=O)CN(Cc2ccc(F)cc2)C(=O)Cc2ccc3ccccc3c2)cc1"
  test-readout: "CC50 at 120 h"
  cmp: ">"
  value-observed: 160
- smiles-repr: "COc1ccc(N(C)C(=O)[C@H](Cc2cc(F)cc(F)c2)NC(=O)CN(C(=O)Cc2c(C)[nH]c3ccccc23)C2CC2)cc1"
  test-readout: "CC50 at 120 h"
  cmp: "="
  value-observed: 112
- smiles-repr: "COc1ccc(N(C)C(=O)[C@H](Cc2cc(F)cc(F)c2)NC(=O)CN2CCN(C(=O)Cc3c[nH]c4ccc(OC)cc34)CC2=O)cc1"
  test-readout: "CC50 at 120 h"
  cmp: "="
  value-observed: 15.9
- smiles-repr: "COc1ccc(N(C)C(=O)[C@H](Cc2ccccc2)NC(=O)Cn2ccc(NC(=O)c3ccc(C#N)cc3)cc2=O)cc1"
  test-readout: "CC50 at 120 h"
  cmp: "="
  value-observed: 137
- smiles-repr: "COc1ccc(N(C)C(=O)[C@H](Cc2cc(F)cc(F)c2)NC(=O)CN2CCN(C(=O)c3ccc(NC(=O)C(F)(F)F)cc3)CC2=O)cc1"
  test-readout: "CC50 at 120 h"
  cmp: "="
  value-observed: 150
- smiles-repr: "COc1ccc(N(C)C(=O)[C@H](Cc2cc(F)cc(F)c2)NC(=O)CN(Cc2ccc(F)cc2)C(=O)Cc2c(C)[nH]c3ccccc23)cc1"
  test-readout: "CC50 at 120 h"
  cmp: "="
  value-observed: 22.6
- smiles-repr: "COc1ccc(N(C)C(=O)[C@H](Cc2ccccc2)NC(=O)CN2CCN(C(=O)Cc3c[nH]c4ccc(OC)cc34)CC2=O)cc1"
  test-readout: "CC50 at 120 h"
  cmp: "="
  value-observed: 104
- smiles-repr: "COc1ccc(N(C)C(=O)[C@H](Cc2ccccc2)NC(=O)Cn2ccc(NC(=O)c3ccc(C)cc3)cc2=O)cc1"
  test-readout: "CC50 at 120 h"
  cmp: "="
  value-observed: 58.3
- smiles-repr: "COC(=O)c1ccc(C(=O)Nc2ccn(CC(=O)N[C@@H](Cc3ccccc3)C(=O)N(C)c3ccc(OC)cc3)c(=O)c2)cc1"
  test-readout: "CC50 at 120 h"
  cmp: "="
  value-observed: 96.2
